MEASURED_ON: full-length human Mineralocorticoid Receptor (MR) (Homo sapiens, UniProt P08235)
Construct: full-length human Mineralocorticoid Receptor (MR); host or cells: PathHunter CHO-K1 cells
Sequence (P08235 1-984): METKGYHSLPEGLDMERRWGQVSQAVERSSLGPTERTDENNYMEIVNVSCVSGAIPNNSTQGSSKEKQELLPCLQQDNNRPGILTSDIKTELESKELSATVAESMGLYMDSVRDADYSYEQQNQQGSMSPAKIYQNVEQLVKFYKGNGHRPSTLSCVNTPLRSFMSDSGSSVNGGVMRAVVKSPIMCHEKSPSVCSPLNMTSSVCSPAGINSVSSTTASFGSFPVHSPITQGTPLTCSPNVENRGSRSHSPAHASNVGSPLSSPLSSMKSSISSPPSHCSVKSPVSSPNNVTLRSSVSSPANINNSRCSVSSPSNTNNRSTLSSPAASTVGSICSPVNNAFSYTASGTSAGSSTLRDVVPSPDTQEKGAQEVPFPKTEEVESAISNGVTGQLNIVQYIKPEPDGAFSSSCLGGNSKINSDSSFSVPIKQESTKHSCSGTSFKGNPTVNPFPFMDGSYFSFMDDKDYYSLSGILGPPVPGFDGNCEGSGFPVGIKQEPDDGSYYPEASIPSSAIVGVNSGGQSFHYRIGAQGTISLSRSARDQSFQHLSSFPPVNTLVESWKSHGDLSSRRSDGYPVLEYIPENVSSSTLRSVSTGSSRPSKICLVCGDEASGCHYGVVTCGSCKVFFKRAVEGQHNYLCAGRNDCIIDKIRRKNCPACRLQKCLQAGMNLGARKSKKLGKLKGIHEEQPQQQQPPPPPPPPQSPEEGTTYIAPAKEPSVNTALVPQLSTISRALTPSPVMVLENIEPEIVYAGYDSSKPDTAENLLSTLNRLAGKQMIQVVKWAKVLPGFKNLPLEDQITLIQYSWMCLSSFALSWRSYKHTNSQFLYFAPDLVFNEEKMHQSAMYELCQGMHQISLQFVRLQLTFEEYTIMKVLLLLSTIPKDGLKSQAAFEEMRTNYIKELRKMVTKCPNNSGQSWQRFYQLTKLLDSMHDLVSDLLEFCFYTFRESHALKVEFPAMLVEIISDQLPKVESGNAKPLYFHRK
PROTOCOL_TEXT: human MR NH Pro assay (PathHunter Protein:Protein interaction assay, MR antagonism)
Format: cell-based
APPLIED_CONDITIONS: PathHunter CHO-K1 cells that overexpress human MR; aldosterone (0.3 nM), 6 hours at 37° C.; antagonist mode; read-out: IC50 rating
ASSAY_ENDPOINT: IC50

Recorded results for 4 molecules are shown here.
| MOLECULE | MEASURED_ON | IC50 |
| --- | --- | --- |
| Cc1noc(C)c1-c1ccc2[nH]c([C@@]3(Cc4ccccc4)OC(=O)N([C@H](C)c4ccc(F)cc4)C3=O)nc2c1 | full-length human Mineralocorticoid Receptor (MR) (Homo sapiens, UniProt P08235) | < 0.1 µM |
| C[C@H](c1ccc(F)cc1)N1C(=O)O[C@](Cc2ccccc2)(c2nc3c(-c4cncnc4)cccc3[nH]2)C1=O | full-length human Mineralocorticoid Receptor (MR) (Homo sapiens, UniProt P08235) | 0.1 to 0.5 µM |
| CCS(=O)(=O)Nc1ccc2nc([C@@]3(Cc4ccccc4)OC(=O)N([C@H](C)c4ccc(F)cc4)C3=O)[nH]c2c1 | full-length human Mineralocorticoid Receptor (MR) (Homo sapiens, UniProt P08235) | 0.1 to 0.5 µM |
| C[C@H](c1ccc(F)cc1)N1C(=O)O[C@](Cc2ccccc2)(c2nc3c(Cl)cc(Cl)cc3[nH]2)C1=O | full-length human Mineralocorticoid Receptor (MR) (Homo sapiens, UniProt P08235) | < 0.1 µM |

Form field - read-out: IC50; system: full-length human Mineralocorticoid Receptor (MR) (Homo sapiens, UniProt P08235); submitted item: `C[C@H](c1ccc(F)cc1)N1C(=O)O[C@](Cc2ccccc2)(c2nc3cc(F)ccc3[nH]2)C1=O`
0.1 to 0.5 µM

Further, for `C[C@H](c1ccc(F)cc1)N1C(=O)O[C@](Cc2ccccc2)(c2nc3cc(N4CCOCC4)ccc3[nH]2)C1=O` ?
< 0.1 µM

And the next one, `C[C@H](C1CCCCC1)N1C(=O)O[C@](Cc2ccccc2)(c2nc3ccc(Cl)cc3[nH]2)C1=O` ?
< 0.1 µM

Try `C[C@H](c1ccc(F)cc1)N1C(=O)O[C@](Cc2ccccc2)(c2nc3c(-c4cccnc4)cccc3[nH]2)C1=O` next.
0.1 to 0.5 µM

Quick one: `C[C@H](c1ccc(F)cc1)N1C(=O)O[C@](Cc2ccccc2)(c2nc3cc(-c4cccnc4)ccc3[nH]2)C1=O`
< 0.1 µM

###

MEASURED_ON: full-length human Mineralocorticoid Receptor (MR) (Homo sapiens, UniProt P08235)
Construct: full-length human Mineralocorticoid Receptor (MR); host or cells: PathHunter CHO-K1 cells
PROTOCOL_TEXT: human MR NH Pro assay (PathHunter Protein:Protein interaction assay, MR antagonism)
Type: cell-based
APPLIED_CONDITIONS: PathHunter CHO-K1 cells that overexpress human MR; aldosterone (0.3 nM), 6 hours at 37° C.; antagonist mode; read-out: IC50 rating
ASSAY_ENDPOINT: IC50

For orientation, consider the following solved cases.
| SMILES_RECORD | RESULT |
| --- | --- |
| C[C@H](c1ccc(F)cc1)N1C(=O)O[C@](Cc2ccccc2)(c2nc3c(-c4ccncc4)cccc3[nH]2)C1=O | 100 to 500 nM |
| COc1ncccc1-c1cccc2[nH]c([C@@]3(Cc4ccccc4)OC(=O)N([C@H](C)c4ccc(F)cc4)C3=O)nc12 | < 100 nM |
| C[C@H](c1ccc(F)cc1)N1C(=O)O[C@](Cc2ccccc2)(c2nc3cc(OC(F)(F)F)ccc3[nH]2)C1=O | 100 to 500 nM |
| C[C@H](c1ccc(F)cc1)N1C(=O)O[C@](Cc2ccccc2)(c2nc3cc(-c4cncnc4)ccc3[nH]2)C1=O | < 100 nM |
| C[C@H](c1ccc(F)cc1)N1C(=O)O[C@](Cc2ccccc2)(c2nc3cc(C(F)(F)F)ccc3[nH]2)C1=O | < 100 nM |

Please look up its IC50: `C[C@H](c1ccc(F)cc1)N1C(=O)O[C@](Cc2ccccc2)(c2nc3c(-c4cnoc4)cccc3[nH]2)C1=O`
500 to 2000 nM

Do the same for `CNC(=O)c1ccc2[nH]c([C@@]3(Cc4ccccc4)OC(=O)N([C@H](C)c4ccc(F)cc4)C3=O)nc2c1` please
100 to 500 nM

###

MEASURED_ON: full-length human Mineralocorticoid Receptor (MR) (Homo sapiens)
Construct: full-length human Mineralocorticoid Receptor (MR); host or cells: PathHunter CHO-K1 cells
PROTOCOL_TEXT: human MR NH Pro assay (PathHunter Protein:Protein interaction assay, MR antagonism)
Type: cell-based
APPLIED_CONDITIONS: PathHunter CHO-K1 cells that overexpress human MR; aldosterone (0.3 nM), 6 hours at 37° C.; antagonist mode; read-out: IC50 rating
pIC50: −log10 of the molar value.
pIC50 reference

A selection of reference data follows.
| COMPOUND | pIC50 |
| --- | --- |
| C[C@H](c1ccc(F)cc1)N1C(=O)O[C@](Cc2ccccc2)(c2nc3ccc(CN4CCOCC4)cc3[nH]2)C1=O [Compound 10] | 6.30 to 7.00 |
| COC(=O)c1ccc2nc([C@@]3(Cc4ccccc4)OC(=O)N([C@H](C)c4ccc(F)cc4)C3=O)[nH]c2c1 [Compound 5] | 6.30 to 7.00 |
| O=C1O[C@](Cc2ccccc2)(c2nc3ccc(Cl)cc3[nH]2)C(=O)N1[C@@H]1CCc2ccccc21 [Compound 13] | 6.30 to 7.00 |
| C[C@H](c1ccc(F)cc1)N1C(=O)O[C@](Cc2ccccc2)(c2nc3c(-c4ccnn4C)cccc3[nH]2)C1=O [Compound 32] | 6.30 to 7.00 |
| C[C@H](c1ccc(F)cc1)N1C(=O)O[C@](Cc2ccccc2)(c2nc3cc(-c4cn[nH]c4)ccc3[nH]2)C1=O [Compound 26] | > 7.00 |

Please report the recorded pIC50 for C[C@H](c1ccc(F)cc1)N1C(=O)O[C@](Cc2ccccc2)(c2nc3cc(-c4cnn(C)c4)ccc3[nH]2)C1=O [Compound 24] .
> 7.00

Then O=C1O[C@](Cc2ccc(F)cc2)(c2nc3ccc(Cl)cc3[nH]2)C(=O)N1[C@@H]1CCc2ccccc21 [Compound 17] ?
6.30 to 7.00

Would you mind doing C[C@H](c1ccc(F)cc1)N1C(=O)O[C@](Cc2ccccc2)(c2nc3cc(F)c(F)cc3n2C)C1=O [Compound 37] as well?
6.30 to 7.00

Ok, now C[C@H](c1ccc(F)cc1)N1C(=O)O[C@](Cc2ccccc2)(c2nc3cc(Cl)ccc3[nH]2)C1=O [Compound 1]
6.30 to 7.00

Would you mind doing C[C@H](c1ccc(F)cc1)N1C(=O)O[C@](Cc2ccccc2)(c2nc3ccccc3[nH]2)C1=O [Compound 3] as well?
6.30 to 7.00

# repeat for C[C@H](c1ccc(F)cc1)N1C(=O)O[C@](Cc2ccccc2)(c2nc3cc(-c4cc[nH]n4)ccc3[nH]2)C1=O [Compound 27]
6.30 to 7.00

# repeat for C[C@H](c1ccc(F)cc1)N1C(=O)O[C@](Cc2ccccc2)(c2nc3cc(-c4cncc(F)c4)ccc3[nH]2)C1=O [Compound 28]
> 7.00

Try the compound C[C@H](c1ccc(F)c(F)c1)N1C(=O)O[C@](Cc2ccccc2)(c2nc3ccc(Cl)cc3[nH]2)C1=O [Compound 15]
6.30 to 7.00

Thanks! And CC(C1CCC(F)(F)CC1)N1C(=O)O[C@](Cc2ccccc2)(c2nc3ccc(Cl)cc3[nH]2)C1=O (some centres unmarked) [Compound 11] ?
> 7.00
